B1: library; numbered along this chain (parent)
chain: MAAAAAAAAEQQSSNGPVKKSMREKAVERRSVNKEHNSNFKAGYIPIDEDRLHKTGLRGRKGNLAICVIILLFILAVINLIITLVIWAVIRIGPNGCDSMEFHESGLLRFKQVSDMGVIHPLYKSTVGGRRNENLVITGNNQPIVFQQGTTKLSVENNKTSITSDIGMQFFDPRTQNILFSTDYETHEFHLPSGVKSLNVQKASTERITSNATSDLNIKVDGRAIVRGNEGVFIMGKTIEFHMGGNMELKAENSIILNGSVMVSTTRLPSSSSGDQLGSGDWVRYKLCMCADGTLFKVQVTSQNMGCQISDNPCGNTH

Variants of: B1
protocol notes: SGCB cell-surface expression functional score (HA stain, bin4 vs bin1, normalised to synonymous) (log10 ratio); higher = more cell-surface SGCB (functional)
Ranges used to classify SGCB cell-surface expression functional score (log10): class 1 = under -0.06, class 2 = from -0.06 up to 0.3, class 3 = 0.3 and over

mutant name: V220I
label class: class 3

mutant name: S21N
label class: class 3

mutant name: S264L
label class: class 3

mutant name: N15V
label class: class 3

Bin this entry: V263D
class 1

Which category does the recorded SGCB cell-surface expression functional score (log10) put A3T in?
class 2

Dear colleague, I would appreciate it if you could identify the bin for I47A and reply at your convenience.
class 2

Band for M247F ?
class 3

Lab log: G259D — assign SGCB cell-surface expression functional score (log10) category
class 1

# bin label for S279W
class 1

Quick check: band for N258D
class 3

Which bin should I file E206G under?
class 1
